Values were extracted from patent US7138361B2.

The following molecules are listed with their measured Plant response rating, Surinam grass values.
tested on: Surinam grass (Brachiaria decumbens); experiment: Test B postemergence; format: in vivo; details: Rate 500 g/ha, scale 0 to 100, 0 is no effect, 100 is complete control, 13 to 15 days
Provide a numeric answer; units are not to be included.

Past entries and their recorded results:
molecule | target or system | Plant response rating, Surinam grass
CC(C)(C)c1ccn(C2CCN(c3ccc(F)c(Cl)c3)C2=O)n1 (stereo not drawn) [Compound 46] | Surinam grass (Brachiaria decumbens) | 0
CCOC(=O)c1cccc(N2CCC(n3ccc(C(C)(C)C)n3)C2=O)c1 (stereo not drawn) [Compound 72] | Surinam grass (Brachiaria decumbens) | 0
CC(C)(C)c1ccn(C2CCN(c3ccc4c(c3)CCC4)C2=O)n1 (stereo not drawn) [Compound 105] | Surinam grass (Brachiaria decumbens) | 0
CC(C)(C)c1ccn(C2CCN(c3cc(C(F)(F)F)cc(C(F)(F)F)c3)C2=O)n1 (stereo not drawn) [Compound 54] | Surinam grass (Brachiaria decumbens) | 0

Request: Give Plant response rating, Surinam grass; test system Surinam grass (Brachiaria decumbens); molecule CCC(CC)c1ccn(C2CCN(c3ccc(Cl)c(OC)c3)C2=O)n1 (stereo not drawn) [Compound 118]
Result: 40

Request: Give Plant response rating, Surinam grass; test system Surinam grass (Brachiaria decumbens); molecule CC(C)(C)c1ccn(C2CCN(c3ccc(Cl)c(Br)c3)C2=O)n1 (stereo not drawn) [Compound 56]
Result: 0

====

tested on: pigweed (Amaranthus retroflexus); assay: Test C preemergence; assay type: in vivo; details: Rate 62 g/ha; scale 0 to 100, 0 no effect, 100 complete control
The following molecules are listed with their measured Plant response rating, Pigweed values.

Past entries and their recorded results:
molecule | Plant response rating, Pigweed
CC(C)(C)c1ccn(C2CCN(c3cccc(C(F)(F)F)c3)C2=S)n1 (stereo not shown) [Compound 22] | 100
CC(C)(C)c1ccn(C2SCN(c3cccc(OC(F)(F)F)c3)C2=O)n1 (stereo not shown) [Compound 30] | 90

Request: Entry O=C1C(n2ccc(C3CCC3)n2)OCN1c1cccc(C(F)(F)F)c1 (stereo not shown) [Compound 39] needs its Plant response rating, Pigweed filled in; supply it.
Result: 0

Request: Entry CC(C)(C)c1ccn(C2CCN(c3ccc(Cl)c(Cl)c3)C2=O)n1 (stereo not shown) [Compound 34] needs its Plant response rating, Pigweed filled in; supply it.
Result: 100

Request: Entry CCC(C)c1ccn(C2SCN(c3cccc(OC(F)(F)F)c3)C2=O)n1 (stereo not shown) [Compound 40] needs its Plant response rating, Pigweed filled in; supply it.
Result: 0

Request: Entry CCC(C)c1ccn(C2SCN(c3cccc(OC(F)(F)F)c3)C2=O)n1 (stereo not shown) [Compound 32] needs its Plant response rating, Pigweed filled in; supply it.
Result: 70

Request: Entry O=C1C(n2ccc(C3CCC3)n2)SCN1c1cccc(OC(F)F)c1 (stereo not shown) [Compound 45] needs its Plant response rating, Pigweed filled in; supply it.
Result: 0

====

system: morningglory (Ipomoea hederacea); test: Test C preemergence; assay type: in vivo; conditions: Preemergence; Rate 500 g/ha; scale 0 to 100
The following compounds are listed with their measured Plant response rating, Morningglory values.
Provide a numeric answer; units are not to be included.

Past entries and their recorded results:
compound | measured result
O=C1C(n2ccc(C3CCC3)n2)SCN1c1cccc(OC(F)(F)F)c1 (centres unmarked) | 0
CC(C)c1ccn(C2SCN(c3cccc(OC(F)(F)F)c3)C2=O)n1 (centres unmarked) | 50

Request: Entry CC(C)(C)c1ccn(C2CCN(c3cccc(OC(F)(F)F)c3)C2=O)n1 (centres unmarked) needs its Plant response rating, Morningglory filled in; supply it.
Result: 30

Request: Entry CC(C)(C)c1ccn(C2SCN(c3cccc(OC(F)(F)F)c3)C2=O)n1 (centres unmarked) needs its Plant response rating, Morningglory filled in; supply it.
Result: 80

Request: Entry CCC(CC)c1ccn(C2SCN(c3cccc(C(F)(F)F)c3)C2=O)n1 (centres unmarked) needs its Plant response rating, Morningglory filled in; supply it.
Result: 90
